Target: Androgen receptor (Homo sapiens)
Sequence (P10275 whole entry): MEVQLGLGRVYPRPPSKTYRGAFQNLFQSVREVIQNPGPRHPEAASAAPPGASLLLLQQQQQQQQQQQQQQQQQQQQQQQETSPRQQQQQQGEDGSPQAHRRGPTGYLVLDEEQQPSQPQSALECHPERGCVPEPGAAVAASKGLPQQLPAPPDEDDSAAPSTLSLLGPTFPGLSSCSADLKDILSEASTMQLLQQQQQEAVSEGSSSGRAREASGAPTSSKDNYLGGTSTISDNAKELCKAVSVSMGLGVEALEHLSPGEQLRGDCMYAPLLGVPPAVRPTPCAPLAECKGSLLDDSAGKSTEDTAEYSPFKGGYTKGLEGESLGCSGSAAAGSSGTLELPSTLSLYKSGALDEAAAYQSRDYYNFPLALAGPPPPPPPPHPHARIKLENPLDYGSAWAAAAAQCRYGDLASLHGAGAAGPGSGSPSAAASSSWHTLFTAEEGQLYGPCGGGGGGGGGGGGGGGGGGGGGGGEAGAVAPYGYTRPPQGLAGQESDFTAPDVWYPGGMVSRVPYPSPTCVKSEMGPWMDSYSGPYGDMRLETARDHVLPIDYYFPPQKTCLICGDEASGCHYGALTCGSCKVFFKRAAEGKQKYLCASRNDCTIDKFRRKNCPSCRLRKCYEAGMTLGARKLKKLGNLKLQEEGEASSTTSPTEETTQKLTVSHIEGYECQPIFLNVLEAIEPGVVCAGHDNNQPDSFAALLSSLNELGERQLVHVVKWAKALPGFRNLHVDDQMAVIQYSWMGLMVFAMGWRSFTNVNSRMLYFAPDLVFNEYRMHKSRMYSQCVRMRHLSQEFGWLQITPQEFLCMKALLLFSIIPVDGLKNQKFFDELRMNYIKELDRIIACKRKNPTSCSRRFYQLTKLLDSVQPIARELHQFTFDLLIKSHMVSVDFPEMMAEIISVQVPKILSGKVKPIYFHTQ
Experiment: Agonist activity at human androgen receptor
metric.name: pEC50
Kindly note that pEC50 refers to -log10 of the concentration in mol/L and answer with the value alone.

Asked: // returns reported pEC50 for input CC1=C[C@@H]([C@@H]2Oc3c(F)cc(F)cc3-c3ccc4c(c32)C(C)=CC(C)(C)N4)CCC1 (stereo in doubt; (-)-5c)
Given back: 5.74

* * *

Target: Glucocorticoid receptor (Homo sapiens, UniProt P04150)
Sequence (P04150 whole entry): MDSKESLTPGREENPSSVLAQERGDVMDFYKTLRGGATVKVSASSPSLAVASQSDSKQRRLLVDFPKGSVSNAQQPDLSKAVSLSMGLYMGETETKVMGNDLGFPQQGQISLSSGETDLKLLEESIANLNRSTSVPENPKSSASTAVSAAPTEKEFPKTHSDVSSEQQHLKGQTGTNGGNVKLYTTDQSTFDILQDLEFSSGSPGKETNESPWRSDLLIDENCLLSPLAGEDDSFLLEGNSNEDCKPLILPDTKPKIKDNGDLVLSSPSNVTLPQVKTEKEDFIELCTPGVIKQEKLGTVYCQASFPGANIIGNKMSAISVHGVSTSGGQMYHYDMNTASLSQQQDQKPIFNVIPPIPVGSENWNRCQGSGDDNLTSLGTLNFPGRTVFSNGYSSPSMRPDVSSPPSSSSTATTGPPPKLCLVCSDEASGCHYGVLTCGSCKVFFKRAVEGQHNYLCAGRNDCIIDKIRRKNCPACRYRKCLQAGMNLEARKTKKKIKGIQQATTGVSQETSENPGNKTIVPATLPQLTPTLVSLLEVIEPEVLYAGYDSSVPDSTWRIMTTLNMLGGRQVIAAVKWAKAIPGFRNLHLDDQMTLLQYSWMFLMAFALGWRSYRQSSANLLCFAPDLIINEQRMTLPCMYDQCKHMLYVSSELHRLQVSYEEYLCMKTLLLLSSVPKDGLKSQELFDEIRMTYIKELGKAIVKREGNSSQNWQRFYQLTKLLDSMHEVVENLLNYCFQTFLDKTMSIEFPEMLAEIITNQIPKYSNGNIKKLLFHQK
Assay: Antagonist activity at human glucocorticoid receptor
metric.name: IC50 (nM)
Reply with just the number (in nM).

Asked: Give the measured IC50 of CC1=C[C@@H]([C@@H]2Oc3c(F)cc(F)cc3-c3ccc4c(c32)C(C)=CC(C)(C)N4)CCC1 (stereo in doubt; (-)-5c) .
Given back: 34

* * *

Target: Progesterone receptor (Homo sapiens, UniProt P06401)
Assay: Agonist activity at human progesterone receptor in human T47D cells assessed as alkaline phosphatase activity
Assay type: functional, cell-based
metric.name: pEC50
Recall that pEC50 is obtained by taking minus log10 of the concentration measured in molar.

Consider the reported pEC50 for these compounds:
CC1=CC(C)(C)Nc2ccc3c(c21)[C@H]([C@H]1CCC[C@@]2(C)O[C@@H]12)Oc1c(F)cc(F)cc1-3
8.55
CC1=CC(C)(C)Nc2ccc3c(c21)[C@H]([C@H]1CCCC(C)=C1C)Oc1c(F)cc(F)cc1-3 (racemic)
7.02

Asked: Fill in: pEC50 of CC1=CC(C)(C)Nc2ccc3c(c21)[C@H]([C@@H]1C=CCCC1)Oc1c(F)cc(F)cc1-3 (racemic) is ___
Given back: 7.57

* * *

Molecular target: Progesterone receptor (Homo sapiens, UniProt P06401)
metric.name: pKi
pKi field: float, defined as -log10 of concentration (mol/L).

CC1=CC(C)(C)Nc2ccc3c(c21)[C@H]([C@@H]1C=CCCC1)Oc1c(F)cc(F)cc1-3 (racemic)
8.32

Asked: Quick one: pKi for CC1=CC(C)(C)Nc2ccc3c(c21)[C@H]([C@H]1CCC[C@@]2(C)O[C@@H]12)Oc1c(F)cc(F)cc1-3 ?
Given back: 8.92

* * *

Target: Progesterone receptor (Homo sapiens)
Assay: Agonist activity at human progesterone receptor in human T47D cells assessed as alkaline phosphatase activity relative to progesterone
Assay type: functional, cell-based
Each record here notes measured Efficacy.
The reply should be a number in %, with the unit left off.

See these solved cases before continuing.
CC1=CC(C)(C)Nc2ccc3c(c21)[C@H]([C@H]1CCC[C@@]2(C)O[C@@H]12)Oc1c(F)cc(F)cc1-3
59
CC1=C[C@H]([C@@H]2Oc3c(F)cc(F)cc3-c3ccc4c(c32)C(C)=CC(C)(C)N4)CCC1 (racemic)
63
CC1=CC(C)(C)Nc2ccc3c(c21)[C@H]([C@H]1CCCC(C)=C1C)Oc1c(F)cc(F)cc1-3 (racemic)
66

Asked: Which Efficacy value belongs to CC1=C[C@@H]([C@@H]2Oc3c(F)cc(F)cc3-c3ccc4c(c32)C(C)=CC(C)(C)N4)CCC1 (stereo in doubt; (-)-5c) ?
Given back: 55

Asked: # iterate: CC(=O)O[C@]1(C(C)=O)CC[C@H]2[C@@H]3C[C@H](C)C4=CC(=O)CC[C@]4(C)[C@H]3CC[C@@]21C
Given back: 98

Asked: Lookup CC1=CC(C)(C)Nc2ccc3c(c21)[C@H]([C@@H]1C=CCCC1)Oc1c(F)cc(F)cc1-3 (racemic)
Given back: 66

* * *

Molecular target: Mineralocorticoid receptor (Homo sapiens)
Sequence (P08235 whole entry): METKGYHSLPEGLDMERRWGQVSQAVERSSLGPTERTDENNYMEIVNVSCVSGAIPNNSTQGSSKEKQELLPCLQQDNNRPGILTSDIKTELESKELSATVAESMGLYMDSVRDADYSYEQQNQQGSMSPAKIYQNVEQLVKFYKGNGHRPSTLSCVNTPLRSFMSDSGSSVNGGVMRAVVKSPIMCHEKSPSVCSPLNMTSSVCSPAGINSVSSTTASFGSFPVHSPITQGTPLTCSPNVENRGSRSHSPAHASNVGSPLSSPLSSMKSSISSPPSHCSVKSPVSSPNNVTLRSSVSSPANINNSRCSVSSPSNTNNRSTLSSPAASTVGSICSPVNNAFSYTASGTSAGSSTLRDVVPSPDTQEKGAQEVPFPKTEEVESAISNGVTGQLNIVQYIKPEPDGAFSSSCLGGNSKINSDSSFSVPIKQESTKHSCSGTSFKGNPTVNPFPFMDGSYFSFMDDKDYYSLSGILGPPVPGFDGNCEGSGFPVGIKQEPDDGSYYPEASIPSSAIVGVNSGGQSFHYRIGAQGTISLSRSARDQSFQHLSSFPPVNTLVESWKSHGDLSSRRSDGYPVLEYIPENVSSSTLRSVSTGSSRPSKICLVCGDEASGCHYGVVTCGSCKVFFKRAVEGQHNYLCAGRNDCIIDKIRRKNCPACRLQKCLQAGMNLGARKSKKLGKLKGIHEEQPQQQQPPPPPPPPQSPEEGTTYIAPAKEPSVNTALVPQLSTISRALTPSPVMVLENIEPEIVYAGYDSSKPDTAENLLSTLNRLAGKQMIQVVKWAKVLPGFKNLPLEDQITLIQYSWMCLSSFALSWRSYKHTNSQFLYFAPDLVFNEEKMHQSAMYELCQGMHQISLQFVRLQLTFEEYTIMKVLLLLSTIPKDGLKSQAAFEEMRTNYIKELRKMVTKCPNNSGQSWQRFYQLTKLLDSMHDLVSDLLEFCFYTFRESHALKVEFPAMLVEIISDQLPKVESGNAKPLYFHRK
Assay: Antagonist activity at human mineralocorticoid receptor
metric.name: IC50 (µM)
The reply should be a number in µM, with the unit left off.

Asked: // lookup IC50 | system=Mineralocorticoid receptor (Homo sapiens) | key= CC1=C[C@@H]([C@@H]2Oc3c(F)cc(F)cc3-c3ccc4c(c32)C(C)=CC(C)(C)N4)CCC1 (stereo in doubt; (-)-5c)
Given back: 1.35

* * *

Target: Progesterone receptor (Homo sapiens)
Sequence (whole entry): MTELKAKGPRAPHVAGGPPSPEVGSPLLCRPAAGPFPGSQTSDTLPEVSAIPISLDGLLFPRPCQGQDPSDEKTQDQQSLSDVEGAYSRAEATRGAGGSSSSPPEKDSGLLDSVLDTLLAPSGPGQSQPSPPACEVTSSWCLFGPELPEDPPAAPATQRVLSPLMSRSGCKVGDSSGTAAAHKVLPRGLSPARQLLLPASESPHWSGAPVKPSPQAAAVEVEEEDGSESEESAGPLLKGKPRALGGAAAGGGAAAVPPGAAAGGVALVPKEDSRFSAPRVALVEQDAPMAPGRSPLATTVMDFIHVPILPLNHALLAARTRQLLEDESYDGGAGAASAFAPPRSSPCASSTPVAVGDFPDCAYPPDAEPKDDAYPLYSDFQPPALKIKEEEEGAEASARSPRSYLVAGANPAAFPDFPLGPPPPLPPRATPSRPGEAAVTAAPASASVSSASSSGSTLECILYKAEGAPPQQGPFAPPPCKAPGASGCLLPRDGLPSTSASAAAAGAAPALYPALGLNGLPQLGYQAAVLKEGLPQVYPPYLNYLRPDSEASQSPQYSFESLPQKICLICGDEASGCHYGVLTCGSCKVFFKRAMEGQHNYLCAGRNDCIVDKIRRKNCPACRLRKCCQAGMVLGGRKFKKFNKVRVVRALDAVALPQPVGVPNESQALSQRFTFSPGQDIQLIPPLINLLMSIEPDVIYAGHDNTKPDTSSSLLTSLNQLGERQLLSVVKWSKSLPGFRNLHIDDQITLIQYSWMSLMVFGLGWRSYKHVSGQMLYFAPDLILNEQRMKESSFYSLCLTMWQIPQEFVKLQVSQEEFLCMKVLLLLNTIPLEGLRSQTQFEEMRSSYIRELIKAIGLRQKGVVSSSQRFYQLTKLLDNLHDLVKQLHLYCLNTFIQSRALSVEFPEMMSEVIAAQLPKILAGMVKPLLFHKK
Experiment: Agonist activity at human progesterone receptor relative to progesterone
Assay type: functional
# Efficacy annotations
Report the figure in % without appending any unit label.

In the examples that follow, each entry is paired with its recorded Efficacy.
CC1=CC(C)(C)Nc2ccc3c(c21)[C@H]([C@H]1CCC[C@@]2(C)O[C@@H]12)Oc1c(F)cc(F)cc1-3
177
CC1=C[C@@H]([C@@H]2Oc3c(F)cc(F)cc3-c3ccc4c(c32)C(C)=CC(C)(C)N4)CCC1 (stereo in doubt; (+)-5d)
11

Asked: Entry CC1=CC(C)(C)Nc2ccc3c(c21)[C@H]([C@@H]1C=CCCC1)Oc1c(F)cc(F)cc1-3 (racemic) : reported Efficacy = ?
Given back: 171

Asked: Follow-up entry: CC1=C[C@@H]([C@@H]2Oc3c(F)cc(F)cc3-c3ccc4c(c32)C(C)=CC(C)(C)N4)CCC1 (stereo in doubt; (-)-5c)
Given back: 145
